- Run description: E. coli acrAB mutant growth effects, primary screen, E. coli filamentation inducers, strain DRC39, OD650, 48 h (AID 1179);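 also: screen aims at cell division blockers that make cells filament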
- Conditions: E. coli DRC39 delta-acrAB growth, higher = more signal, called active from +8 up or from −8 down
Measurement kind: z-score
Note: the reply should be a number with no unit written.

Molecular string	Endpoint value
C=CCOC(=O)[C@H]1[C@@H]2C(=O)O[C@@H](c3ccccc3)[C@@H](c3ccccc3)N2[C@@H](c2ccc(OCCOC(=O)[C@H]3C[C@H]4C(=O)N[C@@H](CCCC[N+](C)(C)C)C(=O)N4[C@H]3c3cccc(OCCO)c3)cc2)[C@]12C(=O)Nc1ccc(I)cc12	0.57
O=C1c2ccccc2[C@](Cc2ccccc2I)(C(=O)NCc2ccccc2)[C@H](c2ccc(CO)cc2)N1C1CCCCC1	-0.14

Consider the additional compound presented here.
## Input Which z-score value is on record for COCCOC(=O)N1C(=O)[C@@]2(c3cc(C#CC4=CCCCC4)ccc31)[C@H](c1ccccc1OCCO)N1[C@H](c3ccccc3)[C@H](c3ccccc3)OC(=O)[C@H]1[C@@H]2C(=O)N1CCc2cc(OC)c(OC)cc2C1 ?
## Output 0.425

###

- Run description: E. coli acrAB mutant growth effects, primary screen, E. coli filamentation inducers, strain DRC39, OD650, 48 h (AID 1179);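 also: screen aims at cell division blockers that make cells filament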
- Conditions: E. coli DRC39 delta-acrAB growth, higher = more signal, called active from +8 up or from −8 down
The source made the active and inactive calls.
Measurement kind: z-score

# example entries with known answers
Molecule	Endpoint value
COc1ccc([Si](C)(C)[C@@H]2[C@@H](CC(=O)N3CCC[C@H]3CO)O[C@]3(C(=O)N(Cc4ccc(N5C(=O)c6cccc7cccc5c67)cc4)c4ccccc43)[C@H]2C)cc1	-0.138 (inactive)
COc1cc2c(cc1O)C(C)N(Cc1cc3c(cc1Br)OCO3)CC2 (stereo not given)	0.0553 (inactive)
CC(C)N1CC=CC23O[C@@H]4C=CCOC(=O)[C@@H]4[C@H]2C(=O)N(C(C)CO)[C@@H]3C1=O (stereo not given in full)	-0.155 (inactive)
CN1C(=O)C2C=CC(C(O)c3c(F)cccc3Cl)N(Nc3ccccc3)C2C1=O (stereo not given)	-0.618 (inactive)
COC(=O)[C@@]1(Cc2ccccc2)[C@H]2c3cc(C(=O)N4CCCC4)n(C[C@H](O)CO)c3C[C@H]2CN1C(=O)c1ccccc1	-0.299 (inactive)
CC1CC/C=C\[C@H]2OC34C=CCN(C(C)C)C(=O)[C@H]3N(CCCCCO)C(=O)[C@@H]4C2C(=O)O1 (stereo not given in full)	1.07 (inactive)
COC(=O)c1c(CC[C@@H](CO)NC(=O)N[C@H](Cn2cc(-c3ccccc3C)nn2)C(C)C)oc(C(C)=O)c1C(=O)OC	-0.488 (inactive)
COc1ccc(C(O)C2C=CC3C(=O)N(c4ccccc4)C(=O)C3N2Nc2ccccc2)cc1OCc1ccccc1 (stereo not given)	-0.131 (inactive)

## Input Which z-score value is on record for C=CC[C@@]1(C(=O)O)N=C(c2ccc(OCCCO)cc2)O[C@@H]1c1ccccc1 ?
## Output 1.2 (inactive)

## Input Which z-score value is on record for CC(C)(C)OC(=O)CC[C@]1(C(=O)NCCN2CCOCC2)N=C(c2ccc(OCCCO)cc2)O[C@H]1c1ccccc1N=[N+]=[N-] ?
## Output -0.635 (inactive)

## Input Which z-score value is on record for CCCN1C(=O)[C@]2(Cc3ccccc3)N=C(c3ccc(OCCCO)cc3)O[C@@H]2c2ccccc21 ?
## Output 0.718 (inactive)

## Input Which z-score value is on record for C[C@]1(C(=O)NC2CC2)c2ccccc2C(=O)N(Cc2ccc(OC(F)(F)F)cc2)[C@H]1c1ccc(CO)cc1 ?
## Output 0.054 (inactive)

## Input Which z-score value is on record for O=C1O[C@H](c2ccccc2)[C@H](c2ccccc2)N2[C@H]1[C@@H](C(=O)O)[C@]1(C(=O)Nc3ccccc31)[C@H]2c1ccc(O)cc1 ?
## Output -0.221 (inactive)

## Input Which z-score value is on record for CCOC(=O)C1=C[C@@H](c2ccccc2)N(S(=O)(=O)c2ccc(C)cc2)[C@H]1c1cccc(Cl)c1 ?
## Output -0.777 (inactive)

###

- Run description: binders of probe aFST on microarray, primary screen, stem cell growth factor project, biochemical, small-molecule microarray, fluorescence 635/667 (AID 1086);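 also: score merges 667 nm fluorescence with signal-to-noise of each printed compound spot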
- Conditions: higher = more signal
Here, each record is paired with measured composite z-score data.

# example entries with known answers
Compound	composite z-score
CC(C)(C)OC(=O)CC[C@]1(C(=O)N2CCOCC2)N=C(c2ccc(OCCCO)cc2)O[C@H]1c1ccccc1	0.534
CCCC[C@@H]1C[C@H]1[C@@H](NC(=O)c1ccccc1)c1ccc(Cl)cc1	-0.833
COc1ccc([Si](C)(C)[C@H]2[C@H](CCn3cc([C@H](O)c4ccccc4)nn3)O[C@@]3(C(=O)N(Cc4cccc(N5C(=O)c6cccc7cccc5c67)c4)c4ccccc43)[C@@H]2C)cc1	-0.295
CCOc1cc(C(O)C2C=CC3C(=O)N(C)C(=O)C3N2N2CCCCC2)ccc1O (configuration not stated)	0.707

## Input Which composite z-score value is on record for C=CCNC(=O)[C@@H]1[C@H]2C(=O)O[C@H](c3ccccc3)[C@H](c3ccccc3)N2[C@H](c2ccccc2OCCO)[C@@]12C(=O)N(C(=O)OCCOC)c1ccc(C#CC3=CCCCC3)cc12 ?
## Output 0.206

## Input Which composite z-score value is on record for CC(CO)N1C(=O)[C@@H]2C3C(=O)OCCC/C=C\[C@H]3OC23C=CCN(Cn2nnc4ccccc42)C(=O)[C@@H]13 (some centres not stated) ?
## Output -0.161

## Input Which composite z-score value is on record for [N-]=[N+]=Nc1ccccc1C[C@@]1(C(=O)O)N=C(c2ccc(OCCCO)cc2)O[C@@H]1c1ccccc1 ?
## Output 0.827

###

- Run description: adipocyte viability effects, profiling panel, cell-based, 3T3-L1 adipocytes, calcein-AM fluorescence, 48 h, basal (AID 1163); also: test concentration not given here
- Conditions: 3T3-L1 adipocytes viability, higher = more signal
Measurement kind: z-score
Note: the reply should be a number with no unit written.

# example entries with known answers
Compound	z-score
CCOc1cc(C(O)C2C=CC3C(=O)N(C)C(=O)C3N2N2CCCCC2)ccc1O (stereo not drawn)	-0.413
CN1C(=O)C2C=CC(C(O)c3c(F)cccc3Cl)N(Nc3ccccc3)C2C1=O (stereo not drawn)	-0.924
CCCCN1CC=CC23O[C@@H]4/C=C\CCC(C)OC(=O)C4[C@H]2C(=O)N(CCCCCCO)[C@@H]3C1=O (stereo partly drawn)	0.736
C=CCNC(=O)[C@@H]1[C@H]2C(=O)O[C@H](c3ccccc3)[C@H](c3ccccc3)N2[C@H](c2ccccc2OCCO)[C@@]12C(=O)N(C(=O)OCCOC)c1ccc(C#CC3=CCCCC3)cc12	1.16
Cc1ccc(S[C@]2(C(=O)NC(C)C)CC(=O)N(C3Cc4ccccc4C3)[C@@H]2c2ccc(CO)cc2I)cc1	-0.345
COC(=O)[C@@]1(Cc2ccc(OC)cc2)[C@H]2c3cc(C(=O)N4CCCC4)n(CCc4cc5ccccc5[nH]4)c3C[C@H]2CN1C(=O)c1ccccc1	-0.0596
COc1ccc(NN2C(C(O)c3ccccn3)C=CC3C(=O)N(C4CCCCC4)C(=O)C32)cc1 (stereo not drawn)	0.23

Consider the additional compound presented here.
## Input Which z-score value is on record for C=C(C(=O)CC[C@H](OC(=O)c1cccnc1)c1ccc(CO)o1)C(C)C ?
## Output -0.449

###

- Run description: basal RPMI8226 mitochondrial membrane potential changes, profiling panel, cell-based, JC-1 fluorescence, 24 h, 100 nL compound (AID 1169); also: test concentration not given here
- Conditions: RPMI8226 myeloma, JC-1 mitochondrial potential fluorescence, higher = more signal
Assign Satisfied whenever z-score does not fall below -0.4; assign Not satisfied whenever it does.

Compound	Assigned class
NC(=O)N1C(=O)C2C(C1=O)C1C=C(CCCO)C2C(c2cccs2)N1Cc1cc2c(cc1Br)OCO2 (stereo not drawn)	Satisfied
CCCC[C@@H]1C[C@H]1[C@@H](NC(=O)c1ccccc1)c1ccc(Cl)cc1	Not satisfied
CCOC(=CC(=O)OC)CC(O)c1cccc(Cl)c1 (stereo not drawn)	Satisfied
COc1cc(OC)c(C(O)C2C=CC3C(=O)N(c4ccccc4)C(=O)C3N2Nc2ccc(C#N)cc2)cc1Br (stereo not drawn)	Satisfied

## Input Determine whether this compound has z-score no lower than -0.4: CCOC(=O)C[C@H]1[C@H](OC(=O)c2ccccc2-c2ccccc2)[C@@H](NC(=O)CC(C)C)c2cc(OCCCO)ccc2N1C(=O)c1ccc2ccccc2n1
## Output Not satisfied

## Input Determine whether this compound has z-score no lower than -0.4: CN1C(=O)C2C(C1=O)C1C=C(c3ccc(CO)cc3)C2C(c2cccs2)N1Cc1cccc(OC(F)(F)F)c1 (stereo not drawn)
## Output Not satisfied

## Input Determine whether this compound has z-score no lower than -0.4: COc1ccc([Si](C)(C)[C@@H]2[C@@H](CC(=O)N3CCC[C@H]3CO)O[C@]3(C(=O)N(Cc4ccc(N5C(=O)c6cccc7cccc5c67)cc4)c4ccccc43)[C@H]2C)cc1
## Output Not satisfied
